Below: a set of entries, each annotated with reported SH2 binding enrichment.
- target-desc: SHP2-C SH2;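 further: peptide library displayed on the E. coli surface as eCPX fusions, selected cells deep-sequenced, score is each peptide's frequency after selection divided by its frequency in the input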
- method-notes: SH2 binding enrichment of the phosphorylated peptide, bacterial display (enrichment ratio); higher = better substrate or ligand; peptides without Tyr show the background
quantity-kind: SH2 binding enrichment

>  <biopolymer-sequence>
MSRDIYSTDFF [NTRK1_Y676_YF]

>  <quantity-kind>
SH2 binding enrichment

>  <measured-result>
1.09

$$$$
>  <biopolymer-sequence>
SGPRCYTIAAL [TTR_Y125_R124C]

>  <quantity-kind>
SH2 binding enrichment

>  <measured-result>
0.766

$$$$
>  <biopolymer-sequence>
TLLERYGMIEI [ACSF3_Y355_T358I]

>  <quantity-kind>
SH2 binding enrichment

>  <measured-result>
0.884

$$$$
>  <biopolymer-sequence>
HTLMKYTDGDQ [PUS7L_Y94_I92M]

>  <quantity-kind>
SH2 binding enrichment

>  <measured-result>
0.757

$$$$
>  <biopolymer-sequence>
QEEPEYWDQET [HLA-A_Y83_G80E]

>  <quantity-kind>
SH2 binding enrichment

>  <measured-result>
0.476

$$$$
>  <biopolymer-sequence>
INSLKYAYNIS [EIF2B5_Y583]

>  <quantity-kind>
SH2 binding enrichment

>  <measured-result>
0.598

$$$$
>  <biopolymer-sequence>
CDDGKYVFVVT [RPS6KA3_Y488_Y483C_YF]

>  <quantity-kind>
SH2 binding enrichment

>  <measured-result>
0.556

$$$$
>  <biopolymer-sequence>
VRVQLYDPDFM [CYP4A22_Y100_Y104F]

>  <quantity-kind>
SH2 binding enrichment

>  <measured-result>
0.67

$$$$
>  <biopolymer-sequence>
FETDFYQKGGK [INSR_Y1190_R1191Q_YF]

>  <quantity-kind>
SH2 binding enrichment

>  <measured-result>
0.62

$$$$
>  <biopolymer-sequence>
CEHRGSLFLAI [TEK_Y897_Y897S_YF]

>  <quantity-kind>
SH2 binding enrichment

>  <measured-result>
0.672

$$$$
>  <biopolymer-sequence>
ADKSVYLMGLN [MYH7_Y386_A385V]

>  <quantity-kind>
SH2 binding enrichment

>  <measured-result>
1.54

$$$$
>  <biopolymer-sequence>
PLLLSYYLIKW [NUP160_Y773]

>  <quantity-kind>
SH2 binding enrichment

>  <measured-result>
1.45

$$$$
>  <biopolymer-sequence>
LHNLFYQLEAE [PKP2_Y616_S615F]

>  <quantity-kind>
SH2 binding enrichment

>  <measured-result>
0.909

$$$$
>  <biopolymer-sequence>
RRVEPYGENFN [APOA4_Y310]

>  <quantity-kind>
SH2 binding enrichment

>  <measured-result>
0.588

$$$$
>  <biopolymer-sequence>
ARSHIYTFSSC [MEFV_Y741_A744S]

>  <quantity-kind>
SH2 binding enrichment

>  <measured-result>
1.46

$$$$
>  <biopolymer-sequence>
SQDSAYHSGIQ [FLG_Y3940]

>  <quantity-kind>
SH2 binding enrichment

>  <measured-result>
0.544

$$$$
>  <biopolymer-sequence>
LLSISYVGCSL [ADGRD1_Y571_S567L]

>  <quantity-kind>
SH2 binding enrichment

>  <measured-result>
0.571

$$$$
